# System: Erythrocyte
# test.method.notes: Hemolytic activity in human Red blood cells assessed as hemolysis incubated for 1 hrs by absorbance based microplate reader analysis
# Type: toxicity, cell-based
Peptide text beside a SMILES is read from it.
Entries and their MHC values follow.

compound	MHC
CC(C)[C@H](N)C(=O)N[C@@H](CCCCN)C(=O)N[C@H](C(=O)N[C@@H](CCCCN)C(=O)N[C@@H](CS)C(=O)N[C@H](C(=O)N[C@@H](CCCCN)C(=O)N[C@@H](CO)C(=O)NCC(=O)N[C@@H](CS)C(=O)N[C@@H](CCCCN)C(=O)N[C@H](C(=O)N[C@@H](CCCCN)C(=O)N[C@H](C(N)=O)C(C)C)C(C)C)[C@@H](C)O)C(C)C (H-VKVKCTKSGCKVKV-NH2)	> 128 µg/mL
CC(C)C[C@H](NC(=O)[C@H](CCCCN)NC(=O)[C@H](CS)NC(=O)CNC(=O)[C@H](CO)NC(=O)[C@H](CCCCN)NC(=O)[C@@H](NC(=O)[C@H](CS)NC(=O)[C@H](CCCCN)NC(=O)[C@@H](N)CC(C)C)[C@@H](C)O)C(N)=O (H-LKCTKSGCKL-NH2)	> 128 µg/mL
C[C@@H](O)[C@H](NC(=O)[C@H](CS)NC(=O)[C@H](CCCCN)NC(=O)[C@@H](N)Cc1c[nH]c2ccccc12)C(=O)N[C@@H](CCCCN)C(=O)N[C@@H](CO)C(=O)NCC(=O)N[C@@H](CS)C(=O)N[C@@H](CCCCN)C(=O)N[C@@H](Cc1c[nH]c2ccccc12)C(N)=O (H-WKCTKSGCKW-NH2)	> 128 µg/mL
CC(C)C[C@H](NC(=O)[C@H](CCCCN)NC(=O)[C@H](CC(C)C)NC(=O)[C@H](CCCCN)NC(=O)[C@H](CS)NC(=O)CNC(=O)[C@H](CO)NC(=O)[C@H](CCCCN)NC(=O)[C@@H](NC(=O)[C@H](CS)NC(=O)[C@H](CCCCN)NC(=O)[C@H](CC(C)C)NC(=O)[C@H](CCCCN)NC(=O)[C@@H](N)CC(C)C)[C@@H](C)O)C(N)=O (H-LKLKCTKSGCKLKL-NH2)	> 128 µg/mL
CC(C)[C@H](N)C(=O)N[C@@H](CCCCN)C(=O)N[C@@H](CS)C(=O)N[C@H](C(=O)N[C@@H](CCCCN)C(=O)N[C@@H](CO)C(=O)NCC(=O)N[C@@H](CS)C(=O)N[C@@H](CCCCN)C(=O)N[C@H](C(N)=O)C(C)C)[C@@H](C)O (H-VKCTKSGCKV-NH2)	> 128 µg/mL
CC(C)[C@H](NC(=O)CNC(=O)[C@H](CC(N)=O)NC(=O)CNC(=O)[C@H](Cc1ccc(O)cc1)NC(=O)[C@H](Cc1ccc(O)cc1)NC(=O)[C@@H](N)CCCCN)C(=O)N[C@@H](Cc1c[nH]cn1)C(=O)N[C@@H](CS)C(=O)N[C@H](C(=O)N[C@@H](CCCCN)C(=O)N[C@@H](CO)C(=O)NCC(=O)N[C@@H](CS)C(=O)N[C@@H](CO)C(=O)N[C@H](C(=O)N[C@@H](CC(N)=O)C(=O)N[C@@H](Cc1c[nH]c2ccccc12)C(N)=O)C(C)C)[C@@H](C)O (H-KYYGNGVHCTKSGCSVNW-NH2)	> 128 µg/mL

* * *

Entries and their hemolysis at 1 h, 128 ug/ml values follow.
# test.method.notes: Hemolytic activity in human Red blood cells assessed as hemolysis at 128 ug/ml incubated for 1 hrs by absorbance based microplate reader analysis relative to control
# Assay type: toxicity, cell-based, Erythrocyte
# conditions.used: red blood cells (erythrocytes), at 128 µg/mL, read-out: Activity
Peptide text beside a SMILES is read from it.

compound	hemolysis at 1 h, 128 ug/ml
CC(C)[C@H](N)C(=O)N[C@@H](CCCCN)C(=O)N[C@@H](CS)C(=O)N[C@H](C(=O)N[C@@H](CCCCN)C(=O)N[C@@H](CO)C(=O)NCC(=O)N[C@@H](CS)C(=O)N[C@@H](CCCCN)C(=O)N[C@H](C(N)=O)C(C)C)[C@@H](C)O (H-VKCTKSGCKV-NH2)	< 10%
C[C@@H](O)[C@H](NC(=O)[C@H](CS)NC(=O)[C@H](CCCCN)NC(=O)[C@H](Cc1c[nH]c2ccccc12)NC(=O)[C@H](CCCCN)NC(=O)[C@@H](N)Cc1c[nH]c2ccccc12)C(=O)N[C@@H](CCCCN)C(=O)N[C@@H](CO)C(=O)NCC(=O)N[C@@H](CS)C(=O)N[C@@H](CCCCN)C(=O)N[C@@H](Cc1c[nH]c2ccccc12)C(=O)N[C@@H](CCCCN)C(=O)N[C@@H](Cc1c[nH]c2ccccc12)C(N)=O (H-WKWKCTKSGCKWKW-NH2)	< 10%
CC(C)C[C@H](NC(=O)[C@H](CCCCN)NC(=O)[C@H](CC(C)C)NC(=O)[C@H](CCCCN)NC(=O)[C@H](CS)NC(=O)CNC(=O)[C@H](CO)NC(=O)[C@H](CCCCN)NC(=O)[C@@H](NC(=O)[C@H](CS)NC(=O)[C@H](CCCCN)NC(=O)[C@H](CC(C)C)NC(=O)[C@H](CCCCN)NC(=O)[C@@H](N)CC(C)C)[C@@H](C)O)C(N)=O (H-LKLKCTKSGCKLKL-NH2)	< 10%

* * *

# System: Salmonella typhimurium
# test.method.notes: Antibacterial activity against Salmonella typhimurium DT104 in the presence of NH4Cl by MH broth based assay
# Format: functional, Salmonella enterica subsp. enterica serovar Typhimurium
# conditions.used: Salmonella enterica
Peptide text beside a SMILES is read from it.
measurement.kind: MIC (mg/L)

compound	system	uom	value.operator	value.observed
CC(C)[C@H](N)C(=O)N[C@@H](CCCCN)C(=O)N[C@H](C(=O)N[C@@H](CCCCN)C(=O)N[C@H](C(=O)N[C@@H](CCCCN)C(=O)N[C@@H](CS)C(=O)N[C@H](C(=O)N[C@@H](CCCCN)C(=O)N[C@@H](CO)C(=O)NCC(=O)N[C@@H](CS)C(=O)N[C@@H](CCCCN)C(=O)N[C@H](C(=O)N[C@@H](CCCCN)C(=O)N[C@H](C(=O)N[C@@H](CCCCN)C(=O)N[C@H](C(N)=O)C(C)C)C(C)C)C(C)C)[C@@H](C)O)C(C)C)C(C)C (H-VKVKVKCTKSGCKVKVKV-NH2)	Salmonella typhimurium	mg/L	=	64
CC(C)C[C@H](NC(=O)[C@H](CCCCN)NC(=O)[C@H](CC(C)C)NC(=O)[C@H](CCCCN)NC(=O)[C@H](CS)NC(=O)CNC(=O)[C@H](CO)NC(=O)[C@H](CCCCN)NC(=O)[C@@H](NC(=O)[C@H](CS)NC(=O)[C@H](CCCCN)NC(=O)[C@H](CC(C)C)NC(=O)[C@H](CCCCN)NC(=O)[C@@H](N)CC(C)C)[C@@H](C)O)C(N)=O (H-LKLKCTKSGCKLKL-NH2)	Salmonella typhimurium	mg/L	=	16
C[C@@H](O)[C@H](NC(=O)[C@H](CS)NC(=O)[C@H](CCCCN)NC(=O)[C@H](Cc1c[nH]c2ccccc12)NC(=O)[C@H](CCCCN)NC(=O)[C@@H](N)Cc1c[nH]c2ccccc12)C(=O)N[C@@H](CCCCN)C(=O)N[C@@H](CO)C(=O)NCC(=O)N[C@@H](CS)C(=O)N[C@@H](CCCCN)C(=O)N[C@@H](Cc1c[nH]c2ccccc12)C(=O)N[C@@H](CCCCN)C(=O)N[C@@H](Cc1c[nH]c2ccccc12)C(N)=O (H-WKWKCTKSGCKWKW-NH2)	Salmonella typhimurium	mg/L	=	4
CC(C)C[C@H](NC(=O)[C@H](CCCCN)NC(=O)[C@H](CC(C)C)NC(=O)[C@H](CCCCN)NC(=O)[C@H](CC(C)C)NC(=O)[C@H](CCCCN)NC(=O)[C@H](CS)NC(=O)CNC(=O)[C@H](CO)NC(=O)[C@H](CCCCN)NC(=O)[C@@H](NC(=O)[C@H](CS)NC(=O)[C@H](CCCCN)NC(=O)[C@H](CC(C)C)NC(=O)[C@H](CCCCN)NC(=O)[C@H](CC(C)C)NC(=O)[C@H](CCCCN)NC(=O)[C@@H](N)CC(C)C)[C@@H](C)O)C(N)=O (H-LKLKLKCTKSGCKLKLKL-NH2)	Salmonella typhimurium	mg/L	>	128
CC(C)[C@H](N)C(=O)N[C@@H](CCCCN)C(=O)N[C@@H](CS)C(=O)N[C@H](C(=O)N[C@@H](CCCCN)C(=O)N[C@@H](CO)C(=O)NCC(=O)N[C@@H](CS)C(=O)N[C@@H](CCCCN)C(=O)N[C@H](C(N)=O)C(C)C)[C@@H](C)O (H-VKCTKSGCKV-NH2)	Salmonella typhimurium	mg/L	>	128
CC(C)[C@H](N)C(=O)N[C@@H](CCCCN)C(=O)N[C@H](C(=O)N[C@@H](CCCCN)C(=O)N[C@@H](CS)C(=O)N[C@H](C(=O)N[C@@H](CCCCN)C(=O)N[C@@H](CO)C(=O)NCC(=O)N[C@@H](CS)C(=O)N[C@@H](CCCCN)C(=O)N[C@H](C(=O)N[C@@H](CCCCN)C(=O)N[C@H](C(N)=O)C(C)C)C(C)C)[C@@H](C)O)C(C)C (H-VKVKCTKSGCKVKV-NH2)	Salmonella typhimurium	mg/L	>	128
CC(C)C[C@H](NC(=O)[C@H](CCCNC(=N)N)NC(=O)CNC(=O)CNC(=O)[C@@H](N)CCCNC(=N)N)C(=O)N[C@H]1CSSC[C@@H](C(=O)N[C@H](C(=O)NCC(=O)N[C@@H](CCCNC(=N)N)C(N)=O)C(C)C)NC(=O)[C@H](C(C)C)NC(=O)[C@@H]2CSSC[C@H](NC(=O)[C@H](Cc3ccc(O)cc3)NC1=O)C(=O)N[C@@H](CCCNC(=N)N)C(=O)N[C@@H](CCCNC(=N)N)C(=O)N[C@@H](CCCNC(=N)N)C(=O)N[C@@H](Cc1ccccc1)C(=O)N2	Salmonella typhimurium	mg/L	=	8
